target: PRMT3 (h) (Homo sapiens); assay: Epigenetic enzyme assay, Methyltransferases (MTs); type: biochemical; conditions: read-out: Reference IC50
Sequence (O60678 whole entry): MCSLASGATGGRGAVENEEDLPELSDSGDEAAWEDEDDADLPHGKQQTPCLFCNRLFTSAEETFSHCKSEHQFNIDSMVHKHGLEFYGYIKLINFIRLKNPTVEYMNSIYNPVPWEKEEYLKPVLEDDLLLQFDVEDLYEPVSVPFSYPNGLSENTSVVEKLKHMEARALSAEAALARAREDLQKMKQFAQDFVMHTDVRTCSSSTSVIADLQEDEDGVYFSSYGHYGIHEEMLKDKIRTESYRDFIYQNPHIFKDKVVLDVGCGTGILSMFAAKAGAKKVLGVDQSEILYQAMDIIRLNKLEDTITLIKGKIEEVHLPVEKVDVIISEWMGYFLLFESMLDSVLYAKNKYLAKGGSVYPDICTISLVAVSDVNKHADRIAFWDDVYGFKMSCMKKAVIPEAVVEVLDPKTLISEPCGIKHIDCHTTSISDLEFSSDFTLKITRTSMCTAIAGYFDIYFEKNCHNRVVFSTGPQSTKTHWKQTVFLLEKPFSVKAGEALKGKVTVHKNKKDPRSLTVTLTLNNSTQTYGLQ
Endpoint label: pIC50
pIC50 here: minus log base 10 of the concentration, concentration in moles per litre.

Query :: Request the reported pIC50 associated with Nc1ncnc2c1ncn2[C@@H]1O[C@H](CSCC[C@H](N)C(=O)O)[C@@H](O)[C@H]1O
Result :: 6.07

----------
% Cell growth values by entry
test system: 43 cancer cell lines and one normal cell line; experiment: In vitro cell viability assay (intracellular ATP, 72 hour); format: cell-based; conditions: H33HJ-JA1 (Lymphoma); 10 μM
API: value field is a number in %; no unit string.

Guide cases for % Cell growth, answers given:
>  <Compound>
CC(C)=CCC[C@H](CO)[C@@H]1CC[C@@H](C)c2c1cc(C)c(O)c2O [Compound 1, 7,8,18-trihydroxyserrulat-14-ene]

>  <Display unit>
%

>  <% Cell growth>
−90

$$$$
>  <Compound>
CC(C)=CCC[C@H](C)[C@@H]1CC[C@@H](C)c2c1cc(C)c(O)c2O [Compound 4, 7,8-dihydroxyserrulat-14-ene]

>  <Display unit>
%

>  <% Cell growth>
−87

$$$$
>  <Compound>
CC(C)=CCC[C@@H]1COc2c(C)cc(O)c3c2[C@H]1CC[C@H]3C [Compound 3, 5,18-epoxy-8-hydroxyserrulat-14-ene]

>  <Display unit>
%

>  <% Cell growth>
90

$$$$

Then this compound:
Query :: Request the reported % Cell growth associated with CC(C)=CCC[C@@H]1C(O)Oc2c(C)cc(O)c3c2[C@H]1CC[C@H]3C (stereo partly shown)
Result :: 57

----------
test system: 280 human cancer cell lines; test: OncoPanel cell proliferation assay (10-day); assay type: cell-based; details: Homo sapiens, EFM-19, EFM-19, Breast; read-out: Cell Count IC50
pIC50 values by entry
pIC50 here: minus log base 10 of the concentration, concentration in moles per litre.

>  <Compound>
CC(C)=CCC[C@H](CO)[C@@H]1CC[C@@H](C)c2c1cc(C)c(O)c2O [Compound 1, 7,8,18-trihydroxyserrulat-14-ene]

>  <Reported measurement>
5.79

$$$$
>  <Compound>
CC(C)=CCC[C@H](C)[C@@H]1CC[C@@H](C)c2c1cc(C)c(O)c2O [Compound 4, 7,8-dihydroxyserrulat-14-ene]

>  <Reported measurement>
4.92

$$$$

Query :: Request the reported pIC50 associated with CC(C)=CCC[C@@H]1C(O)Oc2c(C)cc(O)c3c2[C@H]1CC[C@H]3C (stereo partly drawn) [Compound 2, 5,18-epoxyserrulat-14-en-8,18-diol]
Result :: 4.95

----------
inhibition at 1 µM values by entry
target: CYP2C8 (Homo sapiens); construct: Human liver microsomes; from tissue; host or cells: human liver microsomes; experiment: Cytochrome P450 Inhibition (CYP panel); format: in vitro ADME; conditions: human, human liver microsomes, probe paclitaxel; 1 μM; read-out: % inhibition
Sequence (P10632 whole entry): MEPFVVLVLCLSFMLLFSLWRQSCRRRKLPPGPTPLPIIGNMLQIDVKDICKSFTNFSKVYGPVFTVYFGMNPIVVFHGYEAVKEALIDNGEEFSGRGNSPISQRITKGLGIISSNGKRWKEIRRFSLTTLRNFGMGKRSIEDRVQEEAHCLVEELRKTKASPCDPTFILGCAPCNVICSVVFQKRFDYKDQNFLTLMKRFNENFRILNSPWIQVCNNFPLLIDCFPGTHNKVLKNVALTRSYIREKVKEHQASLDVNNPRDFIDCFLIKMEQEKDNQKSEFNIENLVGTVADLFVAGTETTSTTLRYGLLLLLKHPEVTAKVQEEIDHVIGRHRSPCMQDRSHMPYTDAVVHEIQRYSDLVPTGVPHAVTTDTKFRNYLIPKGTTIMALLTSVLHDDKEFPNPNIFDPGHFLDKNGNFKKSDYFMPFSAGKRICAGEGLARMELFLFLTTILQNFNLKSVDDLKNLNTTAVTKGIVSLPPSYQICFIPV

Guide cases for inhibition at 1 µM, answers given:
>  <Compound>
CC(C)=CCC[C@H](CO)[C@@H]1CC[C@@H](C)c2c1cc(C)c(O)c2O [Compound 1, 7,8,18-trihydroxyserrulat-14-ene]

>  <Tested target>
CYP2C8 (Homo sapiens)

>  <inhibition at 1 µM>
12 to 24%

$$$$
>  <Compound>
CC(C)=CCC[C@H](C)[C@@H]1CC[C@@H](C)c2c1cc(C)c(O)c2O [Compound 4, 7,8-dihydroxyserrulat-14-ene]

>  <Tested target>
CYP2C8 (Homo sapiens)

>  <inhibition at 1 µM>
12 to 24%

$$$$

Then this compound:
Query :: Request the reported inhibition at 1 µM associated with CC(C)=CCC[C@@H]1C(O)Oc2c(C)cc(O)c3c2[C@H]1CC[C@H]3C (stereo partly drawn)
Result :: 12 to 24%

----------
target: FALZ (h) bromodomain (Homo sapiens); construct: Bromodomain; Eurofins CEREP (France), contract laboratory; experiment: Epigenetic binding assay, Bromodomain; conditions: Table 4; read-out: Reference IC50
Endpoint label: pIC50
pIC50 here: minus log base 10 of the concentration, concentration in moles per litre.

Query :: Request the reported pIC50 associated with CCC(=O)N1CCOc2c(cc(-c3ccc(OC)c(OC)c3)cc2OC[C@H]2CCCN(C)C2)C1 [I-CBP112, reference compound]
Result :: 4.61

----------
tested on: 280 human cancer cell lines; assay: OncoPanel cell proliferation assay (10-day); format: cell-based; conditions: Homo sapiens, NTERA-2-cl-D1, NTERA-2 cl.D1, Testis; read-out: Cell Count IC50
Endpoint label: IC50 (µM)
API: value field is a number in µM; no unit string.

>  <Molecule>
CC(C)=CCC[C@H](C)[C@@H]1CC[C@@H](C)c2c1cc(C)c(O)c2O [Compound 4, 7,8-dihydroxyserrulat-14-ene]

>  <IC50 (µM)>
7.41

$$$$
>  <Molecule>
CC(C)=CCC[C@@H]1C(O)Oc2c(C)cc(O)c3c2[C@H]1CC[C@H]3C (stereo partly drawn) [Compound 2, 5,18-epoxyserrulat-14-en-8,18-diol]

>  <IC50 (µM)>
12.5

$$$$

Then this molecule:
Query :: Request the reported IC50 associated with CC(C)=CCC[C@H](CO)[C@@H]1CC[C@@H](C)c2c1cc(C)c(O)c2O [Compound 1, 7,8,18-trihydroxyserrulat-14-ene]
Result :: 2.25

----------
system: MDA-MB-415; test: OncoPanel cell proliferation assay (10-day); assay type: cell-based, human; settings: Homo sapiens; MDA-MB-415, Breast; read-out: Cell Count IC50
Endpoint label: IC50 (µM)
API: value field is a number in µM; no unit string.

Query :: Request the reported IC50 associated with CC(C)=CCC[C@@H]1C(O)Oc2c(C)cc(O)c3c2[C@H]1CC[C@H]3C (stereo partly drawn) [Compound 2, 5,18-epoxyserrulat-14-en-8,18-diol]
Result :: 11.5

Query :: Now the compound CC(C)=CCC[C@H](C)[C@@H]1CC[C@@H](C)c2c1cc(C)c(O)c2O [Compound 4, 7,8-dihydroxyserrulat-14-ene]
Result :: 28.5

Query :: Now the compound CC(C)=CCC[C@H](CO)[C@@H]1CC[C@@H](C)c2c1cc(C)c(O)c2O [Compound 1, 7,8,18-trihydroxyserrulat-14-ene]
Result :: 1.02

----------
target: SETDB1 (h) (Homo sapiens); experiment: Epigenetic enzyme assay, Methyltransferases (MTs); assay type: biochemical; conditions: read-out: Reference IC50
Endpoint label: pIC50
pIC50 here: minus log base 10 of the concentration, concentration in moles per litre.

Query :: Request the reported pIC50 associated with Nc1ncnc2c1ncn2[C@@H]1O[C@H](CSCC[C@H](N)C(=O)O)[C@@H](O)[C@H]1O
Result :: 5.74

----------
biological target: DNMT3b (Homo sapiens, UniProt Q9UBC3); assay: Epigenetic enzyme assay, DNA methyltransferases (DNMTs); format: biochemical; details: read-out: Reference IC50
Endpoint label: IC50 (µM)
API: value field is a number in µM; no unit string.

Query :: Request the reported IC50 associated with Nc1ncnc2c1ncn2[C@@H]1O[C@H](CSCC[C@H](N)C(=O)O)[C@@H](O)[C@H]1O [SAH]
Result :: 0.094

----------
tested on: RKO-AS45-1; experiment: OncoPanel cell proliferation assay (10-day); type: cell-based, human; settings: Homo sapiens, RKOAS451; RKO-AS45-1, Colon; read-out: Cell Count IC50
pIC50 values by entry
pIC50 here: minus log base 10 of the concentration, concentration in moles per litre.

Query :: Request the reported pIC50 associated with CC(C)=CCC[C@H](CO)[C@@H]1CC[C@@H](C)c2c1cc(C)c(O)c2O [Compound 1, 7,8,18-trihydroxyserrulat-14-ene]
Result :: 5.82

Query :: Now the molecule CC(C)=CCC[C@@H]1C(O)Oc2c(C)cc(O)c3c2[C@H]1CC[C@H]3C (stereo partly drawn)
Result :: 5.02

Query :: Now the molecule CC(C)=CCC[C@H](C)[C@@H]1CC[C@@H](C)c2c1cc(C)c(O)c2O [Compound 4, 7,8-dihydroxyserrulat-14-ene]
Result :: 4.89

----------
tested on: 280 human cancer cell lines; experiment: OncoPanel cell proliferation assay (10-day); format: cell-based; conditions: Homo sapiens, U2OS, Soft Tissue - Osteosarcoma; read-out: Cell Count IC50
IC50 values by entry
API: value field is a number in µM; no unit string.

Guide cases for IC50, answers given:
>  <Molecule>
CC(C)=CCC[C@@H]1C(O)Oc2c(C)cc(O)c3c2[C@H]1CC[C@H]3C (stereo partly drawn)

>  <Display unit>
µM

>  <IC50>
12.7

$$$$
>  <Molecule>
CC(C)=CCC[C@H](C)[C@@H]1CC[C@@H](C)c2c1cc(C)c(O)c2O [Compound 4, 7,8-dihydroxyserrulat-14-ene]

>  <Display unit>
µM

>  <IC50>
4.21

$$$$

Then this molecule:
Query :: Request the reported IC50 associated with CC(C)=CCC[C@H](CO)[C@@H]1CC[C@@H](C)c2c1cc(C)c(O)c2O [Compound 1, 7,8,18-trihydroxyserrulat-14-ene]
Result :: 1.66
